# systemName: ZAP-70 (h) (Homo sapiens, UniProt P43403)
# Sequence (P43403 1-619): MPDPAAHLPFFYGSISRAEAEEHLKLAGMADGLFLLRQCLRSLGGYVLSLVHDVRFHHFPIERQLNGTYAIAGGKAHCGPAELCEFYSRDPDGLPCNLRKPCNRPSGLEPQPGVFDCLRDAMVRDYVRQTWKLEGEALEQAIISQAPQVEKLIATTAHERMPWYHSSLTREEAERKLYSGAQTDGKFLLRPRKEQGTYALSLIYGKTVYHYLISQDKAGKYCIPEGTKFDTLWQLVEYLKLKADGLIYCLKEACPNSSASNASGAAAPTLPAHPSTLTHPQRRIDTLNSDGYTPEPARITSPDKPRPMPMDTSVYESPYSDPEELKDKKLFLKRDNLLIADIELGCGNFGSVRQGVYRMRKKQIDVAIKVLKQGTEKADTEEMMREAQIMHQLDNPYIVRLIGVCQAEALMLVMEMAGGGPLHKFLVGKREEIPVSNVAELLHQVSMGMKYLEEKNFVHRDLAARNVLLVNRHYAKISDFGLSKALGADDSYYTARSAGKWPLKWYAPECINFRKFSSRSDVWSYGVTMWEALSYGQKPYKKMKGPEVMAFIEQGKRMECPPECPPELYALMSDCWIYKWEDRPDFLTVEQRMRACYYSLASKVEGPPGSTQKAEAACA
# experiment: Kinase Profiling Assay
# Assay type: biochemical
# conditionSet: 100 μM
Here the recorded % activity is given for each entry.
Give your result in % as a bare value.

Here are 3 sequences together with their reported answers.
Look up % activity for this sequence: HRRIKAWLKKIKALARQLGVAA (Mammalian) [MMI-0500]
1

Quick one: % activity for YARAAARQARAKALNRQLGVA (Mammalian) [MMI-0200] ?
58

Form field: reported % activity of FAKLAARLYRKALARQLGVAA [MMI-0300]
75

Further cases:
Which value of % activity has been reported for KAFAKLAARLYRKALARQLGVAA [MMI-0400] in the records?
33
